From: patent US7300930B2

Assay: Growth inhibition, sulforhodamine B (SRB) assay, CH1
Format: cell-based
Conditions: human, CH1 ovarian carcinoma cells, CH1, 96 hr incubation, tested as salts, read-out: Cytotoxicity - IC50 CH1
Examples of molecules with documented IC50 at 96 h follow.

>  <molecule>
O=C(CCN1CCCC1)Nc1ccc2c(NC3CCCCC3)c3ccc(NC(=O)CCN4CCCC4)cc3nc2c1 [JH-ACI-82]

>  <relation qualifier>
=

>  <IC50 at 96 h, µM>
2.8

$$$$
>  <molecule>
O=C(CCN1CCCCC1)Nc1ccc2c(=O)c3ccc(NC(=O)CCN4CCCCC4)cc3[nH]c2c1 [BR-ACO-5]

>  <relation qualifier>
=

>  <IC50 at 96 h, µM>
13

$$$$
>  <molecule>
O=C(CCN1CCC(O)CC1)Nc1ccc2nc3ccc(NC(=O)CCN4CCC(O)CC4)cc3c(O)c2c1 [JM-ACO-09]

>  <relation qualifier>
>

>  <IC50 at 96 h, µM>
25

$$$$
>  <molecule>
CN(C)CCCNc1c2ccc(NC(=O)CCN3CCCC3)cc2nc2cc(NC(=O)CCN3CCCC3)ccc12 [JH-ACI-65]

>  <relation qualifier>
=

>  <IC50 at 96 h, µM>
17

$$$$
>  <molecule>
CC(=O)Nc1cccc(Nc2c3ccc(NC(=O)CCN4CCCC4)cc3nc3cc(NC(=O)CCN4CCCC4)ccc23)c1 [SB-ACI-14]

>  <relation qualifier>
>

>  <IC50 at 96 h, µM>
25

$$$$
>  <molecule>
Nc1ccc(Nc2c3ccc(NC(=O)CCN4CCCC4)cc3nc3ccc(NC(=O)CCN4CCCC4)cc23)cc1 [JH-ACI-105]

>  <relation qualifier>
=

>  <IC50 at 96 h, µM>
15.8

$$$$
>  <molecule>
O=C(CCN1CCCC1)Nc1ccc2c(NC3CC3)c3ccc(NC(=O)CCN4CCCC4)cc3nc2c1 [JM-ACI-14]

>  <relation qualifier>
>

>  <IC50 at 96 h, µM>
25

$$$$

====

Quick record: IC50, telomerase (Homo sapiens, UniProt O14746).
measure: IC50 (nM)

>  <compound>
Nc1ccccc1Nc1c2ccc(NC(=O)CCN3CCCC3)cc2nc2cc(NC(=O)CCN3CCCC3)ccc12

>  <measure>
IC50

>  <value measured>
20

$$$$
>  <compound>
CN(C)CCNc1c2ccc(NC(=O)CCN3CCCC3)cc2nc2cc(NC(=O)CCN3CCCC3)ccc12

>  <measure>
IC50

>  <value measured>
18

$$$$
>  <compound>
O=C(CCN1CCCC1)Nc1ccc2c(=O)c3ccc(NC(=O)CCN4CCCC4)cc3[nH]c2c1

>  <measure>
IC50

>  <value measured>
8000

$$$$
>  <compound>
CN1CCN(CCC(=O)Nc2ccc3[nH]c4ccc(NC(=O)CCN5CCN(C)CC5)cc4c(=O)c3c2)CC1

>  <measure>
IC50

>  <value measured>
660

$$$$
>  <compound>
O=C(CCN1CCCC1)Nc1ccc2c(NCCN3CCCCC3)c3ccc(NC(=O)CCN4CCCC4)cc3nc2c1

>  <measure>
IC50

>  <value measured>
50

$$$$
>  <compound>
CN(C)CCC(=O)Nc1ccc2c(=O)c3ccc(NC(=O)CCN(C)C)cc3[nH]c2c1

>  <measure>
IC50

>  <value measured>
4300

$$$$
>  <compound>
O=C(CCN1CCC(O)CC1)Nc1ccc2nc3ccc(NC(=O)CCN4CCC(O)CC4)cc3c(O)c2c1

>  <measure>
IC50

>  <value measured>
1580

$$$$
>  <compound>
CCC1CCCCN1CCC(=O)Nc1ccc2c(=O)c3ccc(NC(=O)CCN4CCCCC4CC)cc3[nH]c2c1 (stereo not drawn)

>  <measure>
IC50

>  <value measured>
1600

$$$$
>  <compound>
COCCNc1c2ccc(NC(=O)CCN3CCCC3)cc2nc2cc(NC(=O)CCN3CCCC3)ccc12

>  <measure>
IC50

>  <value measured>
140

$$$$
>  <compound>
O=C(CCN1CCCCC1CO)Nc1ccc2[nH]c3ccc(NC(=O)CCN4CCCCC4CO)cc3c(=O)c2c1 (stereo not drawn)

>  <measure>
IC50

>  <value measured>
2330

$$$$
>  <compound>
CN(C)c1cccc(Nc2c3ccc(NC(=O)CCN4CCCC4)cc3nc3cc(NC(=O)CCN4CCCC4)ccc23)c1

>  <measure>
IC50

>  <value measured>
100

$$$$
>  <compound>
O=C(CCN1CCCCC1)Nc1ccc2nc3ccc(NC(=O)CCN4CCCCC4)cc3c(O)c2c1

>  <measure>
IC50

>  <value measured>
5800

$$$$
>  <compound>
CN(C)c1ccc(Nc2c3ccc(NC(=O)CCN4CCCC4)cc3nc3cc(NC(=O)CCN4CCCC4)ccc23)cc1

>  <measure>
IC50

>  <value measured>
95

$$$$
>  <compound>
CN1CCCC1CCNc1c2ccc(NC(=O)CCN3CCCC3)cc2nc2cc(NC(=O)CCN3CCCC3)ccc12 (stereo not drawn)

>  <measure>
IC50

>  <value measured>
18

$$$$
>  <compound>
CN(C)c1ccc(Nc2c3ccc(NC(=O)CCN4CC5(C)CC4CC(C)(C)C5)cc3nc3cc(NC(=O)CCN4CC5(C)CC4CC(C)(C)C5)ccc23)cc1

>  <measure>
IC50

>  <value measured>
140

$$$$
>  <compound>
CC1CCCCN1CCC(=O)Nc1ccc2nc3ccc(NC(=O)CCN4CCCCC4C)cc3c(O)c2c1 (stereo not drawn)

>  <measure>
IC50

>  <value measured>
1970

$$$$
>  <compound>
Nc1ccc(Nc2c3ccc(NC(=O)CCN4CCCC4)cc3nc3cc(NC(=O)CCN4CCCC4)ccc23)cc1

>  <measure>
IC50

>  <value measured>
60

$$$$
>  <compound>
O=C(CCN1CCCC1)Nc1ccc2c(NCc3cccnc3)c3ccc(NC(=O)CCN4CCCC4)cc3nc2c1

>  <measure>
IC50

>  <value measured>
66

$$$$
>  <compound>
CC1(C)CC2CC(C)(CN2CCC(=O)Nc2ccc3c(Nc4ccc(N)cc4)c4ccc(NC(=O)CCN5CC6(C)CC5CC(C)(C)C6)cc4nc3c2)C1

>  <measure>
IC50

>  <value measured>
160

$$$$
>  <compound>
O=C(CCN1CCOCC1)Nc1ccc2c(O)c3ccc(NC(=O)CCN4CCOCC4)cc3nc2c1

>  <measure>
IC50

>  <value measured>
49000

$$$$
>  <compound>
CCN(CC)CCC(=O)Nc1ccc2c(=O)c3ccc(NC(=O)CCN(CC)CC)cc3[nH]c2c1

>  <measure>
IC50

>  <value measured>
5700

$$$$
